- System: CEM cells
- Format: cell-based
Non-standard residues stand in square brackets, D forms with d. Residues, ends and D or L forms follow the SMILES beside them. 1Nal = N[C@@H](Cc1cccc2ccccc12)C(=O)O; Sta = CC(C)C[C@H](N)[C@@H](O)CC(=O)O
Parameter Measured: IC25 (Table V)

COc1ccc(C[C@H](NC(C)=O)C(=O)N2CCC[C@H]2C(=O)N[C@@H](Cc2ccccc2)C(=O)N[C@H](C(=O)N[C@@H](CC(C)C)[C@@H](O)CC(=O)N[C@@H](CC(C)C)C(=O)N[C@@H](Cc2ccccc2)C(N)=O)C(C)C)cc1 [P-9, Ac YOM Pro Phe Val Statine Leu Phe NH2] (Ac-Y(Me)PFV[Sta]LF-NH2)    > 100 µg/mL
CC(=O)N[C@@H](Cc1ccc(O)cc1)C(=O)N1CCC[C@H]1C(=O)N[C@@H](Cc1ccccc1)C(=O)N[C@H](C(=O)N[C@@H](CC(C)C)[C@@H](O)CC(=O)N[C@@H](CC(C)C)C(=O)N[C@@H](Cc1ccccc1)C(N)=O)C(C)C [P-5, Ac Tyr Pro Phe Val Statine Leu Phe NH2] (Ac-YPFV[Sta]LF-NH2)    > 100 µg/mL
Cc1cn([C@H]2C[C@H](N=[N+]=[N-])[C@@H](CO)O2)c(=O)[nH]c1=O    > 1.0 µg/mL

# ---- query compound ----
Query string: Value lookup for IC25 (Table V); key = CC(=O)N[C@@H](Cc1cccc2ccccc12)C(=O)N1CCC[C@H]1C(=O)N[C@@H](Cc1ccccc1)C(=O)N[C@H](C(=O)N[C@@H](CC(C)C)[C@@H](O)CC(=O)N[C@@H](CC(C)C)C(=O)N[C@@H](Cc1ccccc1)C(N)=O)C(C)C [P-7, Ac NA Pro Phe Val Statine Leu Phe NH2] (Ac-[1Nal]PFV[Sta]LF-NH2)
Result string: > 10 µg/mL
